Hi there, I'd appreciate the recorded growth for every entry that follows.
# System: SK-MEL-2 melanoma
# TEST_SUMMARY: NCI-60 one-dose screen, 48 h (100 = growth as untreated, 0 = no growth, -100 = all killed)
# REPORTED_CONDITIONS: 10 µM unless noted
The panel holds about 83,000 compounds, 20% with a hit somewhere; the sample as a whole holds those more often.
Please state the figure in %; there is no need to write the unit.

**Q:** Indicate the recorded growth value for this molecule: c1ccc(CN2C(c3ccccc3)=Nc3ccccc3C2c2c[nH]c3ccccc23)cc1 (configuration not stated)
**A:** 69

**Q:** State its growth for this molecule: "CC1(C)C(=O)CC[C@]2(C)[C@H]3C(=O)C=C4[C@@H]5C[C@@](C)(C(=O)NCCNCCN)CC[C@]5(C)CC[C@@]4(C)[C@]3(C)CC[C@@H]12"
**A:** 121

**Q:** Identify the reported growth for the following entry. "O=c1c(CNc2ccc(S(=O)(=O)Nc3ncccn3)cc2)coc2ccccc12"
**A:** 95.9

**Q:** Supply measured growth of "Clc1ccc2[nH]cc(-c3nc(-c4c[nH]c5ncccc45)cs3)c2c1" in your reply.
**A:** 48.1

**Q:** In one line, give reported growth of the entry "CCN1CCN(C(=O)[C@]23CC[C@@H](C)[C@H](C)[C@H]2C2=CC[C@@H]4[C@@]5(C)C/C(=C/c6cccc(OC)c6OC)C(=O)C(C)(C)[C@@H]5CC[C@@]4(C)[C@]2(C)CC3)CC1" .
**A:** 84.6

**Q:** Check the records and state growth for "COc1cccc(NC(=O)c2sc3nc4c(cc3c2N)C(=O)CCC4)c1"
**A:** 25.3

**Q:** Find the measured growth of "CC1(C)C(=O)/C(=C\c2ccco2)C[C@]2(C)[C@H]3CC[C@@H]4[C@@H](C(=O)/C=C/c5ccco5)CC[C@@]4(C)[C@]3(C)CC[C@@H]12" and report it.
**A:** -0.219

====

# Test system: HS 578T breast
# TEST_SUMMARY: NCI-60 one-dose screen, 48 h
# REPORTED_CONDITIONS: 10 µM unless noted
About 83,000 compounds went through this panel and 20% of them were active in at least one assay; those are over-represented in the sample as a whole. Calls of active or inactive are those of the source. The calls were made as follows: active = growth percent below 10; inactive = the rest.
// one of y = active, n = inactive, no free text

**Q:** Hey, what did the test say about "Brc1ccc(Cn2nnnc2-c2ccn(-c3ccccc3)n2)cc1" ?
**A:** n

**Q:** Returns: the outcome recorded for "C=CC(=O)N[C@H](Cc1ccc(-c2cc(Cl)cc(Cl)c2)cc1)[C@H](O)[C@@H](O)C(=O)O" in this assay.
**A:** n

**Q:** Per the records of this test, what outcome belongs to "Oc1cccc2oc(=S)[nH]c12" ?
**A:** n

**Q:** I would be grateful if you could indicate the recorded call for CC(=O)O[C@H]1CC[C@@]2(C)[C@@H](CC[C@@H]3[C@@H]2CC(=O)[C@@]2(C)[C@H]3C[C@@H](C3CCCC3=O)[C@@H]2C(C)=O)C1 (stereo not given in full) .
**A:** n

**Q:** Per the assay record, what outcome was assigned to Nc1c2c(nc3ccc(Cl)cc13)CC(c1ccccc1)CC2=O (stereo not given) ?
**A:** n

**Q:** Record request — test call for "COc1cccc(-c2nn(-c3ccccc3)cc2-c2ccnc(NCCNS(=O)(=O)c3ccccc3)c2)c1"
**A:** n

**Q:** Hi team, can someone confirm the assay call for NC(Cc1ccc(O)cc1)C(=O)N/N=C/c1ccccc1O (stereo not given) ?
**A:** n

**Q:** # lookup: test call for "CC1(C)C=CC[C@]2(C)[C@H]3CC[C@@H]4[C@H]5[C@H](C(=O)/C=C/c6cccnc6)CC[C@]5(CO)CC[C@@]4(C)[C@]3(C)CC[C@@H]12"
**A:** y

**Q:** // outcome(item) with item = "Cn1cc(-c2csc(-c3cn(CCCN4CCCCC4)c4ccc(F)cc34)n2)c2cccnc21"
**A:** n

**Q:** Per the assay record, what outcome was assigned to "Cn1cnc2c1c(=O)n(CCC(=O)Nc1ccc(F)cc1)c(=O)n2C" ?
**A:** n

**Q:** Can you look up the reported call for COc1ccc(C2NC(=O)Nc3ccccc32)c(OC)c1 (stereo not given) for me?
**A:** n

**Q:** Answer briefly: the call reported for "O=Cc1nc2ccccc2[nH]1" in this assay.
**A:** n

**Q:** Recorded call for "C=C1C(=O)O[C@H]2[C@H]1CC/C(Cn1cc(-c3ccc(F)cc3)nn1)=C\CC[C@@]1(C)O[C@@H]21" ?
**A:** n

**Q:** GET /call?item= "CCN(CC)c1ccc(/C=C/c2cc(C)c3ccccc3n2)cc1" returns the recorded outcome of this test.
**A:** n

**Q:** Outcome? "O=C(NO)c1ccc(Cn2c(=O)n(-c3ccccc3)c(=O)c3ccccc32)cc1"
**A:** n

**Q:** What did this assay record as the result for "Nc1ncnc2nc(Br)[nH]c12" ?
**A:** n

**Q:** I would be grateful if you could indicate the recorded call for "CN1CCN(c2ccc3nc(-c4[nH]ncc4Nc4ncnc5c4OCCCN5)[nH]c3c2)CC1" .
**A:** y

**Q:** Entry "CC[C@]12C=CCN3CC[C@@]4(c5cc([C@H]6CCC(=O)N6)c(OC)cc5N(C)[C@H]4[C@@](O)(C(=O)OC)[C@@H]1OC(C)=O)[C@@H]32" : call = ?
**A:** n

**Q:** Tell me the recorded outcome of this test for "Fc1ccc(Nc2nnc(-c3ccc(Cl)cc3)o2)cc1" .
**A:** n

**Q:** Which result was noted for this molecule in the test: "Cn1cc(-c2nc(-c3cn(C)c4ncccc34)cs2)c2cc(F)ccc21"
**A:** n

====

# Tested on: NCI/ADR-RES ovarian
# TEST_SUMMARY: NCI-60 one-dose screen, 48 h
# REPORTED_CONDITIONS: 10 µM unless noted
The panel holds about 83,000 compounds, 20% with a hit somewhere; the sample as a whole holds those more often. Activity calls are given as the source filed them. How the source made its calls: active means growth percent below 10; inactive means the rest.
Give your call using only these classes: active, inactive

**Q:** For "C=C(C)[C@@H]1CC[C@]2(/C=N/Nc3ccncc3)CC[C@]3(C)[C@H](CC[C@@H]4[C@@]5(C)CCCNC(C)(C)[C@@H]5CC[C@]43C)[C@@H]12" , what call appears in the results of this test?
**A:** inactive

**Q:** # outcome recorded in this test, key = "COc1cc(/C=N/NC(=S)NNC(=S)NC2CCCCC2)cc(OC)c1OC"
**A:** inactive

**Q:** How was NC1=C(C/C(N)=N\O)C(c2ccccc2Cl)c2c(ccc3ccccc23)O1 (stereo not drawn) classified in this test?
**A:** inactive

**Q:** # outcome recorded in this test, key = "CC(=O)OC[C@]12CC[C@@H](/C(C)=N/O)[C@@H]1[C@H]1CC[C@@H]3[C@@]4(C)CCCNC(C)(C)[C@@H]4CC[C@@]3(C)[C@]1(C)CC2"
**A:** inactive

**Q:** Entry "N#C/C(=C\c1ccc(-c2ccc(Cl)cc2)o1)c1nc(-c2ccco2)cs1" : call = ?
**A:** inactive

**Q:** Short answer needed: outcome of this test for "C=C(C)[C@@H]1CC[C@]2(C)[C@H](CC=C3[C@@H]4CC(C)(C)CC[C@]4(C(=O)OC)CC[C@]32C)[C@@]1(C)CC/C(N)=N/O" ?
**A:** active

**Q:** Look up the recorded call for "Cc1cc2nc3c4cc(Cl)ccc4n(CCN(C)C)c3nc2cc1C" in this test.
**A:** inactive

**Q:** What classification did "Cc1ccc(Cc2cnc(NC(=O)/C=C/c3cccc(C)c3)s2)cc1" end up with in this test?
**A:** active

====

# Tested on: SF-268 CNS
# TEST_SUMMARY: NCI-60 one-dose screen, 48 h
# REPORTED_CONDITIONS: 10 µM unless noted
This is part of a sample that, as a whole, favours compounds with a hit. Of some 83,000 tested, about 20% had one in any assay. Activity calls are given as the source filed them. Rule for the calls: active = growth percent below 10; inactive = the rest.
Return exactly one item of TRUE for active, FALSE for inactive

**Q:** What call does the record list for C/C(=N\NC(=O)C(C)SC(C)C(=O)N/N=C(\C)c1cccnc1)c1cccnc1 (stereo not given) ?
**A:** FALSE

**Q:** Which outcome was assigned to "CN1CCN(c2ccc3nc(-c4[nH]ncc4Nc4ncnc5[nH]ccc45)[nH]c3c2)CC1" in this test?
**A:** TRUE

**Q:** How was "COc1ccc(-n2c(/C=C/c3ccc(O)c(OC)c3)cc(/C=C/c3ccc(O)c(OC)c3)nc2=O)cc1" classified in this test?
**A:** FALSE

**Q:** For this compound, state the assay outcome: "Cc1cc(N2CCCC2)nc(N(CCNc2ccnc3cc(Cl)ccc23)Cc2ccco2)n1"
**A:** FALSE

**Q:** Outcome logged for "N#C/C(=C\c1ccc(-c2ccc(F)cc2)o1)c1nc(-c2ccco2)cs1" in this assay:
**A:** FALSE
